ASSAY_METHOD_TEXT: soluble on expression in E. coli; label from the status in PepcDB or PDB records
VALUE_KIND: soluble on expression in E. coli

Recorded results for 5 sequences are shown here.
| ENTRY_SEQUENCE | VALUE_KIND | RECORDED_RESULT |
| --- | --- | --- |
| AIAEEDEFIGEKTFQRYCAEFIKHSQQIGDSWEWRPSKDCSDGYMCKIHFQIKNGSVMSHLGASTHGQTCLPMEEAFELPLDDCEVIETAAASEVIKYEYHVLYSCSYQVPVLYFRASFLDGRPLTLKDIWEGVHECYKMRLLQGPWDTITQQEHPILGQPFFVLHPCKTNEFMTPVLKNSQKINKNVNYITSWLSIVGPVVGLNLPLSYAKATSQDERNVP | soluble on expression in E. coli | soluble |
| MGSDKIHHHHHHMDSYKQYIKEALPNLSIHSYKQNEEGWDNVAIIVNDELLFRFPRKQEYAMRIPLEKELCTLLSCSLHEIEVPKYHLFYEKNTDAIPLCSYYTLIHGEPLKTEIVTTLEKQERKALITQLATFLAALHSIPLKSVTALGFPIEKTLTYWKELQAKLNEYVTNSLTSFQKSTLNRLFENFFACLATSKFQNTIIHADFTHHHILFDKQNKTISGVIDFGDAQIGDPAFDFAGLYYDFGHEFTTSVYEQYSTLTSHHDPLLIHRITSFYQYSPLLHNMIYNFETKNELEFLASIEQLKVILQG | soluble on expression in E. coli | not soluble |
| MGLLLYRELVHKLKTKYKKIAGKGENQKDKTLPWHLETDQLTNRHPNHKVRIPYIDEVFDMLAKMTAKNQLTLPKSVTTAVGAGEYFEIEVRNGQIVLTPVRIQRADAVRAKLAELDLGERDIMDAVTWARQPVKGSATE | soluble on expression in E. coli | not soluble |
| MSLTERLSPVEIMGALVAFPTVSRDTNLPLVDWVETYLAGHGITAHRWVDPEQPHKAALFAHVGPWEEGAVVLSGHTDVVPIDGQPWDSDPFTVVERDGKYFGRGTCDMKGFDALAIWALVEGRYRDLKRPLQLALSFDEEVGCTGAPPMIVEMQNHLPKGSAVIVGEPSMMQAVTGHKGGFGYDTRVLGFEVHSSIMHTGVNAIMAAAPLIDWANHRNAENRAATPSALAAMFDPPWTTCHVGMISGGTAHNITAKECRFAMDFRIVPGEAKERWRDAYFAVAREVEAQMQAVHPEARIDLSEQFHVPPLVPEQEGEAEMLVRALTGDNAGHVVSYGTEAGQFQEAGYSAVICGPGDIAQAHQPNEFITVAQFDAGHGFMARLLDRLSEGHHHHHH | soluble on expression in E. coli | soluble |
| MSSPGGGTRFALVAGTTETAGRAGISAAGADPELMSVTPAADAELVTYGTPVRTDVTPVSPSGCPTPALVTRAAREVLGFDVTVVDGGLAEKTGAPTVSVGARPGKDIAEQDPVSTAHGAFAAARQFGQSLPADELYLGETIPGGTTTALGVLRALGEDGMVSSSLPENPTAQKSEVVAEGLQASSLEPGDAANEPKRAVRRMGDPVLATLAGLTAGAVESDTAVTLAGGSQCVAVAALVRHGGYEGPLGLATTSYVADDESADVRASVDRLDLDLTVTDPGFDRSDHVAMERFVAGEAKEGVGMGGALALADRAGIPMAEVRDRFAAIYDDLIGDAPTATAEERT | soluble on expression in E. coli | not soluble |

Input line: # get_value(readout='soluble on expression in E. coli', item= "MGSDKIHHHHHHAEVAVPDTTPKDTASAVKITYEDPRDPFEGFNRVMWDFNYLYLDRYLYRPVAHGYNDYIPLPAKMGVNNFLQNLEEPSSVVNNLLQGKWGWAANAGGRFTVNTTIGLLGVIDVADMMGMTRKQDEFNEVLGYYGVPNGPYFMAPFAGPYIVRELASDWVDGLYFPLSELTMWQSVLKWGLKSLHARASAIDQERLVDNALDPYAFVKDAYIQHMDYKVYDGNVPQKQEDDELLDQYMQELE" )
Output line: not soluble

Input line: Moving on to "MGSDKIHHHHHHMNIELADLRLFVMIAECGNLTHGAARAFLSPPAASARIKAMEQEIGQQLLVRKNKGVELTPSGDALLRHARLVLRQFDFLTDDMTNAQMGHLRIYANTTGVTEFLPAILARFLADHPGVRVDLQERLTQEIIRAVADGTADIGIISGTEGRDGLERLRFATDRLMLAVPSGHHLAHHDQVSLEQTLAFEHIALHDGSTLLDFLRRQLRRSAFDRQLRIQVRSFEAMCRLIEAGVGIGVVPESAALRHLQTMDITLLALADDWAVRDRSILVRRWADLPQSAQRLIDLLVEKEAGGAEV"
Output line: not soluble

###

ASSAY_METHOD_TEXT: soluble on expression in E. coli; label from the status in PepcDB or PDB records

| ENTRY_SEQUENCE | soluble on expression in E. coli |
| --- | --- |
| SNAEERLKMSTTTSTQDSGLLKVLLPPFEKKNNVKVDVIAVGTGQALKLGEAGDVDVVFVHARKLEDKFVADGFGVNRKDVMYNDFVIVGPKNDPAGIAKAKTAAEALKLLATKGATFISRGDKSGTHTKELDLWKSAGVDPKGNWYVEAGQGMGPVITMATERRAYTLTDRGTYNAFKGAKTDLVILFQGEKGLFNPYGIMAVNPKKFPHVKYDLAMKLIDYVTGPEGLKIISDY | soluble |
| SLLAMPSAISVAVLPDSPHAREMATKAHNSGHEVLIHLPMAPLSKQPLEKNTLRPEMSSDEIERIIRSAVNNVPYAVGINNHMGSKMTSNLFGMQKVMQALERYNLYFLDSVTIGNTQAMRAAQGTGVKVIKRKVFLDDSQNEADIRVQFNRAIDLARRNGSTIAIGHPHPSTVRVLQQMVYNLPPDITLVKASSLLNEPQVDTSTPPKNAVPDAPRNPFRGVKLCKPKKPIEPVYANRFFEVLSESISQSTLIVYFQHQWQGWGKQPEAAKFNASAN | soluble |

###

ASSAY_METHOD_TEXT: soluble on expression in E. coli; label from the status in PepcDB or PDB records
VALUE_KIND: soluble on expression in E. coli

Below: 5 sequences and their reported soluble on expression in E. coli.
| ENTRY_SEQUENCE | soluble on expression in E. coli |
| --- | --- |
| MFIDTLIEKIREKDNPSVVGLDPKIEYVPSFIKEDMYKKYGKNLKAVAEAILLFNKYIIDAVYDIVPAVKPQLAYYEMYGLEGMRVFYETCKYAKEKGLLVIADGKRNDIGSTAQCYSAAYLGKTDIDEGISEAVFDVDALTVNPYLGVDGIKPFIDDCVKYNKGIFVLVKTSNKSSGEIQDILTQEGRSIYEIVAEYVESWGENKKGKYGYSCVGAVVGATYPNLAKILRKILKNSYILVPGYGAQGGTARDVAHCFNYDGLGAIVNASRSIMCAYKSEQWKNVYSEEKFYEASRAEAIRMRDDINSALRDRK | not soluble |
| MGSDKIHHHHHHMVSRYLEHLEHTFSTRLFQRNTRKISLTPAGEKALLYCENILQQQQLLQELAAPEQHNGTIRFTCGLFLFELGVAECIRQFKRQHPHIQFDVYLTESTMDLIDAQVDLALRITQKVADGLIARPVCQIESVFCAHPDYLKQHSPLLHPRQLIQHECIAHHSQHQFWTLFDNEQQPQNYPLNVTFKSNDVNALYDMCLHAQGVAMLPTLLVEKDLKEKRLKALFKNFTAPELSLSVVYASRQHLPRITQEFIAFMIENLDFYLKPQN | not soluble |
| MRLERTFDPNDLSTQNMESPICLPIGFVHFLAQSQTLQQVLDTVAEWINRIFESDRTSITLYENSDYLKVYSFSGNKAIPADFLVPIDQAFVGRVFKNQQLIICDDVSQSDELDCVMLTSSGMGTCMDAPLMHGQMCLGTLNVAHHQTHFYTKEQAAQLQCIANWIALNI | not soluble |
| GDTSWIKTGKVAWDWWNDWNLKGVPFKAGINMDTYKYYIDFASRNGLEFIVLDEGWYDPKSGDMLTVIPELDLPELIAYGKSKGVEIVLWTVFNVLDSQLEAACKKYADMGIKGFKVDFLDRDDQTAVEMVYRIAEMTARYKLTLDLHGIYKPTGINRTYPHII | not soluble |
| PDFTPQKFKEKTAEQLRVLQASFLNSSVLTDEELNRLRAQTKLTRREIDAWFTEKKKSKALKEEKMEIDESNAGSS | soluble |

Input line: Need soluble on expression in E. coli of "MPEIRLRHVVSCSSQDSTHCAENLLKADTYRKWRAAKAGEKTISVVLQLEKEEQIHSVDIGNDGSAFVEVLVGSSAGGAGEQDYEVLLVTSSFMSPSESRSGSNPNRVRMFGPDKLVRAAAEKRWDRVKIVCSQPYSKDSPFGLSFVRFHSPPDKDEAEAPSQKVTVTKLGQFRVKEEDESANHHHHHH" , thanks.
Output line: soluble

Input line: Now the same for "MAHHHHHHMRKGKSPSSFFSLHKKYLLTGVTILSFIFMFQYKYHEVLTVYEDKTNVQQSSRLFWTRLLFGRTRSRITGRIFNIEIPHSYRLYVYNFFIKYLNINKEEIKYPIESYKSLGDFFSRYIREDTRPIGDLNEYSIVSPCDSEIVDFGELTSNYLDNVKGIKFNIKTFLGSDMIKKYNDDSTSFYYAIFYLSPKKYHHFHAPFNFKYKIRRHISGEVFPVFQGMFKIINNLFDINERVILSGEWKGGHVYYAAISAYNVGNIKIVNDEDLLTNNLRTQLSYMGGDINTKIYDHYKDLEIGDEVGEFKVGSSIIVIFENKKNFKWNVKPNQQISVGERIGGVDQPKQPKNKFIKIRS"
Output line: soluble

Input line: And for "SLELWLNKATDPSMSEQDWSAIQNFCEQVNTDPNGPTHAPWLLAHKIQSPQEKEALYALTVLEMCMNHCGEKFHSEVAKFRFLNELIKVLSPKYLGSWATGKVKGRVIEILFSWTVWFPEDIKIRDAYQMLKKQGIIKQDPKLPVDKI" ?
Output line: soluble

Input line: Item: "MVRKALDGQEVVTASAETLRVEALEVRLGENLVLKEVDLAVEPGEIVALLGPSGSGKTTLLRAVAGLLRPTGGRILLGKEVFFDGKKGVFLPPERRNLGLVFQSYALWPQRTVYENVAYGLRLRKVPEKAVRERVLGLLDRLGLTGLERRYPGALSGGQQQRVSLARALAYDPKLLLLDEPLSNLDAKLRDQARVWLRETLKATGKAALFVTHDQGEAMAIADRIALLNEGRMEQVGTPEELYRNPKTLFVADFLGNPNVVEALVVGLEGSTARLELAGFPLRARAMGALVPGRLAKLVLRPEALRPAGVGEVNALEGALAHSLYLGSHYEHWVRVGDALLRFYSPLPLGEARVRLAVDPEAALAYPG"
Output line: soluble

Input line: // repeat for "SEAVRPDSCESGPAAPRAEERPAPEARVHFRVTRFIMEAGVKLGMQSIPIATACTIYHKFFCEINLDAYDLYLVAMSSIYLAGKVEEQHLRTRDIINVSHRYFNPGSEPLELDSRFWELRDSIVQCELLMLRVLRFQVSFQHPHKYLLHYLISLKNWLNRYSWQRTPISVTAWALLRDSYHGGLCLRFQAQHLAVAVLYLALQVYGVEVPAEGEAEKPWWQVFSDDLTKPIIDNIVSDLIQIYTMDTEIP" and report
Output line: soluble

Input line: Here is the next sequence: "MIFENRLALSAMAGVNNAEFCRKQKASLVILGGFNADRRALEAAEKAVKRGRKEFLFGIDGIEGEIKKLGRRKFAVNVRSSSLEGYLNVAELVAEFEGIIEINAHCRQPEFVEIGCGEWLLFNHERLVEIVSKTSRIAPTFVKIRGGHKLDYEKIARKLFDAGCLAIHVDAMIPGGGCDFSLIERISRIGNVIGNNSFVDIESGERIIMAGAKMASAARAVLRDENFFEKMLRSPLLSQPVELSCGRFRLEHHHHHH"
Output line: soluble

Input line: What do you have for "GSPEKILAQIIQEHREGLDWQEAATRASLSLEETRKLLQSMAAAGQVTLLRVENDLYAISTERYQAWWQAVTRALEEFHSRYPLRPGLAREELRSRYFSRLPARVYQALLEEWSREGRLQLAANTVALAGFTPSFSETQKKLLKDLEDKYRVSRWQPPWVKEVAGSFNLDPSELEELLHYLVREGVLVKINDEFYWHRQALGEAREVIKNLASTGPFGLAEARDALGSSRKYVLPLLEYLDQVKFTRRVGDKRVVVGN" ?
Output line: soluble
